# System: OVCAR-4 ovarian
# Experiment Description: NCI tumour cell line growth inhibition, 48 h

>  <Compound>
Cc1ccc(C(=O)Nc2ccc(CP(=O)(O)O)cc2CP(=O)(O)O)cc1NC(=O)c1cccc(NC(=O)Nc2cccc(C(=O)Nc3cc(C(=O)Nc4ccc(CP(=O)(O)O)cc4CP(=O)(O)O)ccc3C)c2)c1

>  <TGI>
> 100 µM

$$$$
>  <Compound>
CCOC(=O)/C(=C\c1ccc(C#N)cc1)C(C)=O

>  <TGI>
97.9 µM

$$$$
>  <Compound>
COc1ccc(/C(=N\O)c2cc(C)c(OC)c(C)c2)cc1O

>  <TGI>
> 100 µM

$$$$
>  <Compound>
CC1(O)CC(c2nc(-c3ccc4ccc(-c5ccccc5)nc4c3)c3c(N)nccn23)C1 (centres undefined)

>  <TGI>
> 95 µM

$$$$

----------
# TGI per record follows
# Test system: SF-539 CNS
# Experiment Description: NCI tumour cell line growth inhibition, 48 h
Property Name: TGI

>  <Compound>
N#CC1=C(N)Oc2c(sc3c(Br)cccc23)C1c1ccc(Br)cc1 (stereo not given)

>  <Property Name>
TGI

>  <Value Observed>
3.02 µM

$$$$
>  <Compound>
CC(O)c1ccc[n+](Cc2ccccc2)c1 (stereo not given)

>  <Property Name>
TGI

>  <Value Observed>
> 400 µM

$$$$
>  <Compound>
Cc1cc2[nH]c(=O)c3c4ccccc4cn3c2cc1C

>  <Property Name>
TGI

>  <Value Observed>
27 µM

$$$$
>  <Compound>
O=C(O)CCSC(=O)Nc1ccccc1F

>  <Property Name>
TGI

>  <Value Observed>
> 100 µM

$$$$
>  <Compound>
O=C(O)CCc1cccc2c1oc1c(CCC(=O)O)cccc12

>  <Property Name>
TGI

>  <Value Observed>
> 100 µM

$$$$
>  <Compound>
COC(=O)C1(C(=O)OC)Cc2ccc(C)cc2C2=C1C(=O)c1ccccc1C2=O

>  <Property Name>
TGI

>  <Value Observed>
61.8 µM

$$$$
>  <Compound>
O=C(O)CNS(=O)(=O)c1ccc(NC(=O)CI)cc1

>  <Property Name>
TGI

>  <Value Observed>
30 µM

$$$$
>  <Compound>
Oc1ccccc1CNCC12CC3CC(CC(C3)C1)C2

>  <Property Name>
TGI

>  <Value Observed>
> 100 µM

$$$$
>  <Compound>
NC1=C(c2nc(-c3ccccc3)cs2)C(c2ccc(Br)cc2)c2c(c3ccccc3oc2=O)O1 (stereo not given)

>  <Property Name>
TGI

>  <Value Observed>
> 150 µg/mL

$$$$
>  <Compound>
Cc1ccc(N(C(=O)Nc2ccc(F)c(Cl)c2)C2=NCC(C)S2)cc1 (stereo not given)

>  <Property Name>
TGI

>  <Value Observed>
> 100 µM

$$$$
>  <Compound>
CN1CC[C@]2(C)c3cc(O)ccc3CC3CCCC1C32C (stereo not given in full)

>  <Property Name>
TGI

>  <Value Observed>
> 100 µM

$$$$
>  <Compound>
COc1ccc(N2C(=O)C3c4[nH]c5ccccc5c4C4CC(C)CC(C)C4C3C2=O)cc1 (stereo not given)

>  <Property Name>
TGI

>  <Value Observed>
> 100 µM

$$$$
>  <Compound>
C#C[C@]1(O)CC[C@H]2[C@@H]3CCC4=C/C(=N/NC(=O)c5cccc6cc7ccccc7nc56)CC[C@@H]4[C@H]3CC[C@@]21CC

>  <Property Name>
TGI

>  <Value Observed>
> 100 µM

$$$$
>  <Compound>
O=C(Cc1ccc(Cl)cc1)Nc1ccc2oc(-c3ccccc3)nc2c1

>  <Property Name>
TGI

>  <Value Observed>
> 100 µM

$$$$
>  <Compound>
Cc1ccc(C2=C(C#N)C(=O)N3CCN=C3S2)cc1

>  <Property Name>
TGI

>  <Value Observed>
> 100 µM

$$$$
>  <Compound>
Cc1c(C(=O)CC(=O)C(=O)Nc2ccc(Cl)cc2)[n+](=O)c2ccccc2n1[O-]

>  <Property Name>
TGI

>  <Value Observed>
> 100 µM

$$$$
>  <Compound>
N#Cc1cc(-c2nc3c(F)cccc3s2)ccc1N

>  <Property Name>
TGI

>  <Value Observed>
> 100 µM

$$$$
>  <Compound>
Cc1c2c(Cl)c3c(c(Cl)c2c(C)c2c(Cl)c4c(c(Cl)c12)C(c1ccccc1)(c1ccccc1)C4(c1ccccc1)c1ccccc1)C(c1ccccc1)(c1ccccc1)C3(c1ccccc1)c1ccccc1

>  <Property Name>
TGI

>  <Value Observed>
> 100 µM

$$$$
>  <Compound>
CC(=O)C(CN(Cc1ccccc1)Cc1ccccc1)C(c1ccccc1)c1c(O)c2ccccc2oc1=O (stereo not given)

>  <Property Name>
TGI

>  <Value Observed>
> 100 µM

$$$$
>  <Compound>
CC(=O)OCC(=O)[C@@]12OC(C)(C)O[C@@H]1C[C@H]1[C@@H]3CC=C4C[C@@H](O)CC[C@]4(C)[C@H]3CC[C@@]12C

>  <Property Name>
TGI

>  <Value Observed>
74.7 µM

$$$$
